Assay: activity coefficient (dimensionless); of the first substance listed, at infinite dilution; xn = mol fraction of the nth substance listed
Details: 323.15 K; 101.33 kPa; Liquid; Chromatography; x1 = 0
The entries below are paired with their reported activity coefficient.
Lab note: jot the number down without any unit.

What does the data say about its activity coefficient? Entry: CCCCC [pentane] + CCCCCCn1cc[n+](C)c1C.O=S(=O)([N-]S(=O)(=O)C(F)(F)F)C(F)(F)F
5.55

activity coefficient lookup needed for ClC(Cl)(Cl)Cl [tetrachloromethane] + CCCCCCn1cc[n+](C)c1C.O=S(=O)([N-]S(=O)(=O)C(F)(F)F)C(F)(F)F , thanks.
2.26

Name the reported activity coefficient value associated with the compound Cc1ccc(C)cc1 [1,4-dimethylbenzene] + CCCCCCn1cc[n+](C)c1C.O=S(=O)([N-]S(=O)(=O)C(F)(F)F)C(F)(F)F
1.42

So what does the record say about activity coefficient for Cc1ccccc1 [toluene] + CCCCCCn1cc[n+](C)c1C.O=S(=O)([N-]S(=O)(=O)C(F)(F)F)C(F)(F)F ?
0.99

Bench note: what activity coefficient did c1ccccc1 [benzene] + CCCCCCn1cc[n+](C)c1C.O=S(=O)([N-]S(=O)(=O)C(F)(F)F)C(F)(F)F show?
0.72

Entry under review: C1CCOC1 [tetrahydrofuran] + CCCCCCn1cc[n+](C)c1C.O=S(=O)([N-]S(=O)(=O)C(F)(F)F)C(F)(F)F . Reported activity coefficient?
0.51

Param item = CCc1ccccc1 [ethylbenzene] + CCCCCCn1cc[n+](C)c1C.O=S(=O)([N-]S(=O)(=O)C(F)(F)F)C(F)(F)F ; retrieve measured activity coefficient.
1.36
